Origin of values: patent US9028845B2

- Tested on: human PBMCs
- assay comment: Human PBMC cytokine response assay (IFN-γ and IFN-α in cell-free medium by ELISA), with or without cPLGA
- Assay type: cell-based
- applied conditions: Table 25; donor 28252
Strand notation (5' to 3'): a small letter for the sugar, then the base; units joined by * are phosphorothioate-linked, units joined directly phosphodiester-linked; [ ] holds rarer units or linkages, { } end groups; capitals alone tell only the bases. d = 2'-deoxy (DNA)
reported metric: IFN-g (pg/mL)
Your answer is read as pg/mL, so omit the unit and give the number.

Input: Return value of IFN-g for input (5′-TCGTCGA-3′-HEG)2-glycerol-HEG-5′-TCGTCGA-3′ [Compound C-94] , no commentary.
Output: 287

Input: Return value of IFN-g for input 5′-TCGTCG-3′-HEG-5′-ACGTTCG-3′-HEG-5′-AGATGAT-3′ [Compound C-10] , no commentary.
Output: 776

Input: Return value of IFN-g for input 5′-TCGACGT-3′ [Compound P-14, reference compound] , no commentary.
Output: 11

Input: Return value of IFN-g for input 5′-TCGAGAT-3′ [Compound P-13, reference compound] , no commentary.
Output: 22

Input: Return value of IFN-g for input 5′-TCGTCGA-3′ [Compound P-1, reference compound] , no commentary.
Output: 56

Input: Return value of IFN-g for input 5′-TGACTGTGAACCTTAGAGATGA-3′ (SEQ ID NO: 3) (dT*dG*dA*dC*dT*dG*dT*dG*dA*dA*dC*dC*dT*dT*dA*dG*dA*dG*dA*dT*dG*dA) [Compound P-7, negative control, reference compound] , no commentary.
Output: 39

Input: Return value of IFN-g for input 5′-TCGTCGA-3′-HEG-5′-TCGTCGA-3′-HEG-5′-TCGTCGA-3′ [Compound C-21] , no commentary.
Output: 155

Input: Return value of IFN-g for input 5′-TCGAGAT-3′-HEG-5′-TCGAGAT-3′-HEG-5′-TCGAGAT-3′ [Compound C-45] , no commentary.
Output: 95

====

- Tested on: human PBMCs
- assay comment: Human PBMC cytokine response assay (IFN-γ and IFN-α in cell-free medium by ELISA), with or without cPLGA
- Type: cell-based
- applied conditions: Table 10; donor 28044
Strand notation (5' to 3'): a small letter for the sugar, then the base; units joined by * are phosphorothioate-linked, units joined directly phosphodiester-linked; [ ] holds rarer units or linkages, { } end groups; capitals alone tell only the bases. d = 2'-deoxy (DNA)
For each of the substances below, state its IFN-α.
Your answer is read as pg/mL, so omit the unit and give the number.

Input: Jot down IFN-α (human PBMCs) of 5′-CGTTCGA-3′-HEG-5′-CGTTCGA-3′-HEG-5′-CGTTCGA-3′ [Compound C-52] .
Output: 35

Input: Jot down IFN-α (human PBMCs) of 5′-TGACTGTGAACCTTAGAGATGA-3′ (SEQ ID NO: 3) (dT*dG*dA*dC*dT*dG*dT*dG*dA*dA*dC*dC*dT*dT*dA*dG*dA*dG*dA*dT*dG*dA) [Compound P-7, negative control, reference compound] .
Output: 22

Input: Jot down IFN-α (human PBMCs) of 5′-TCGTCGT-3′-HEG-5′-TGTCGTT-3′-HEG-5′-TGTCGTT-3′ [Compound C-47] .
Output: 0

Input: Jot down IFN-α (human PBMCs) of 5′-TCGTCG-3′-HEG-5′-TCGA-3′ [Compound C-40] .
Output: 31

Input: Jot down IFN-α (human PBMCs) of 5′-ACGTTCG-3′-HEG-5′-ACGTTCG-3′-HEG-5′-AGATGAT-3′ [Compound C-24] .
Output: 8

Input: Jot down IFN-α (human PBMCs) of 5′-TCGTCGT-3′-HEG-5′-TCGTCGT-3′-HEG-5′-TCGTCGT-3′ [Compound C-42] .
Output: 24

Input: Jot down IFN-α (human PBMCs) of 5′-TCGAGAT-3′-HEG-5′-TCGAGAT-3′-HEG-5′-TCGAGAT-3′ [Compound C-45] .
Output: 152

Input: Jot down IFN-α (human PBMCs) of 5′-TTCGTTT-3′-HEG-5′-TTCGTTT-3′-HEG-5′-TTCGTTT-3′ [Compound C-46] .
Output: 26

====

- Tested on: human PBMCs
- assay comment: Human PBMC cytokine response assay (IFN-γ and IFN-α in cell-free medium by ELISA), with or without cPLGA
- Assay type: cell-based
- applied conditions: Example 58; 20 ug/ml; mean of four individuals
Strand notation (5' to 3'): a small letter for the sugar, then the base; units joined by * are phosphorothioate-linked, units joined directly phosphodiester-linked; [ ] holds rarer units or linkages, { } end groups; capitals alone tell only the bases. d = 2'-deoxy (DNA)
reported metric: IFN-α mean (pg/mL)
Your answer is read as pg/mL, so omit the unit and give the number.

Input: Return value of IFN-α mean for input (5′-TAGTCAT-3′-HEG)2-glycerol-HEG-5′-AACCTTC-3′ [Compound M-3, reference compound] , no commentary.
Output: 52

Input: Return value of IFN-α mean for input 5′-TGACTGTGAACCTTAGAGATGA-3′ (SEQ ID NO: 3) (dT*dG*dA*dC*dT*dG*dT*dG*dA*dA*dC*dC*dT*dT*dA*dG*dA*dG*dA*dT*dG*dA) [Compound P-7, negative control, reference compound] , no commentary.
Output: 52

Input: Return value of IFN-α mean for input (5′-TCGACGT-3′-HEG)2-glycerol-HEG-5′-TCGACGT-3′ [Compound C-101] , no commentary.
Output: 703

Input: Return value of IFN-α mean for input (5′-TCGAACGTTCGA-3′ (SEQ ID NO: 155)-HEG)2-glycerol-HEG-3′-AGCTTGCAAGCT-5′ (SEQ ID NO: 155) (DNA, all phosphorothioate, methylation of C not given here; Three DNA copies joined by HEG spacers and glycerol branching, one copy inverted) [Compound C-174] , no commentary.
Output: 856

Input: Return value of IFN-α mean for input 5′-TCGAACGTTCGA-3′ (SEQ ID NO: 155) (listed as DNA, chemistry not fully specified) [Compound P-17, reference compound] , no commentary.
Output: 729

====

- Test system: human PBMCs
- assay comment: Human PBMC cytokine response assay (IFN-γ and IFN-α in cell-free medium by ELISA), with or without cPLGA
- Format: cell-based
- applied conditions: Example 58; 0.8 ug/ml; mean of four individuals
Strand notation (5' to 3'): a small letter for the sugar, then the base; units joined by * are phosphorothioate-linked, units joined directly phosphodiester-linked; [ ] holds rarer units or linkages, { } end groups; capitals alone tell only the bases. d = 2'-deoxy (DNA)
For each of the substances below, state its IFN-α mean.
The answer consists of two parts: a number and, after it, its unit.

Input: Return value of IFN-α mean for input (5′-TCGAACGTTCGA-3′ (SEQ ID NO: 155)-HEG)2-glycerol-HEG-5′-TCGAACGTTCGA-3′ (SEQ ID NO: 155) (three copies via HEG-glycerol branching, chemistry not fully specified) [Compound C-173] , no commentary.
Output: 1312 pg/mL

Input: Return value of IFN-α mean for input (5′-TCGACGT-3′-HEG)2-glycerol-HEG-5′-TCGACGT-3′ [Compound C-101] , no commentary.
Output: 52 pg/mL

Input: Return value of IFN-α mean for input (5′-TCGAACGTTCGA-3′ (SEQ ID NO: 155)-HEG)3-trebler-HEG-5′-T-3′ (three copies HEG-trebler branched, HEG-T, chemistry not fully specified) [Compound C-175] , no commentary.
Output: 10528 pg/mL

Input: Return value of IFN-α mean for input 5′-TCGAACGTTCGA-3′ (SEQ ID NO: 155) (listed as DNA, chemistry not fully specified) [Compound P-17, reference compound] , no commentary.
Output: 124 pg/mL

Input: Return value of IFN-α mean for input (5′-TAGTCAT-3′-HEG)2-glycerol-HEG-5′-AACCTTC-3′ [Compound M-3, reference compound] , no commentary.
Output: 52 pg/mL

Input: Return value of IFN-α mean for input (5′-TCGAACGTTCGA-3′ (SEQ ID NO: 155)-HEG)2-glycerol-HEG-3′-AGCTTGCAAGCT-5′ (SEQ ID NO: 155) (DNA, all phosphorothioate, methylation of C not given here; Three DNA copies joined by HEG spacers and glycerol branching, one copy inverted) [Compound C-174] , no commentary.
Output: 5464 pg/mL

Input: Return value of IFN-α mean for input 5′-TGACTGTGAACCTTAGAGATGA-3′ (SEQ ID NO: 3) (dT*dG*dA*dC*dT*dG*dT*dG*dA*dA*dC*dC*dT*dT*dA*dG*dA*dG*dA*dT*dG*dA) [Compound P-7, negative control, reference compound] , no commentary.
Output: 52 pg/mL
